Target: GST-Nv-NF-kB (Cys allele) (Nematostella vectensis, UniProt E5G601 2-411)
Sequence: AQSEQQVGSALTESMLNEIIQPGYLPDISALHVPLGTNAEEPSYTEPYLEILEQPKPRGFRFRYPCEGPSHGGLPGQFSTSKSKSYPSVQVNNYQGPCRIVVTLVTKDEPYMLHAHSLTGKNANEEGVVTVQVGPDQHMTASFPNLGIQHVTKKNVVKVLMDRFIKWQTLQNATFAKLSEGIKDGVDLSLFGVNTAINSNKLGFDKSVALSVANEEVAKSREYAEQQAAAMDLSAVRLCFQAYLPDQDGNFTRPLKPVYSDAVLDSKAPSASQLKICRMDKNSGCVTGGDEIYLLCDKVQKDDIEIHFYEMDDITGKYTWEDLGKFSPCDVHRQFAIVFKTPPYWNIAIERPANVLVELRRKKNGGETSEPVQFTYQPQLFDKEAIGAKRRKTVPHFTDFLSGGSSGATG
Assay: protein-binding microarray (PBM); PBM: ~300 nM protein, 6 mM HEPES pH 7.8, 80 mM KCl, 0.5 mM EDTA, 0.5 mM EGTA, 6% glycerol, 35 ng/ul poly-dIdC, 1% milk, 1 h, room temperature; high values mean tight binding
Details: dsDNA, one strand shown
binding signal values by entry
Answer with the figure and its unit, nothing else.

CCGATTAACATCACCTCTTTCCCTGATGTTAATCGGGTCTTGATTCGCTTGACGCTGCTG; 2.64 z-score
CCGATTAACATCACGGGGAACTCTGATGTTAATCGGGTCTTGATTCGCTTGACGCTGCTG; 6.61 z-score

Quick one: binding signal for `CCGATTAACATCAGGGAATCTCATGATGTTAATCGGGTCTTGATTCGCTTGACGCTGCTG` ?
3.41 z-score

I am curious: what binding signal value has been reported for `CCGATTAACATCACGAAAACCCCTGATGTTAATCGGGTCTTGATTCGCTTGACGCTGCTG` ?
5.36 z-score

So what's the measured binding signal for this one? `CCGATTAACATCACGGCTTTCCCTGATGTTAATCGGGTCTTGATTCGCTTGACGCTGCTG`
3.5 z-score

Item `CCGATTAACATCAAGCATTCCCCTGATGTTAATCGGGTCTTGATTCGCTTGACGCTGCTG` has what recorded binding signal?
7.73 z-score

If you can, please state the reported binding signal value of `CCGATTAACATCACAAAAAACCCTGATGTTAATCGGGTCTTGATTCGCTTGACGCTGCTG` .
4.37 z-score

Would you mind telling me what binding signal value was observed for `CCGATTAACATCAGCATCCCCCCTGATGTTAATCGGGTCTTGATTCGCTTGACGCTGCTG` ?
4.99 z-score

So what's the measured binding signal for this one? `CCGATTAACATCACCCAGGGAAATGATGTTAATCGGGTCTTGATTCGCTTGACGCTGCTG`
2.66 z-score

---

Molecular target: GST-Aq-NF-kB (Amphimedon queenslandica, UniProt A9Y5G7 2-389)
Sequence: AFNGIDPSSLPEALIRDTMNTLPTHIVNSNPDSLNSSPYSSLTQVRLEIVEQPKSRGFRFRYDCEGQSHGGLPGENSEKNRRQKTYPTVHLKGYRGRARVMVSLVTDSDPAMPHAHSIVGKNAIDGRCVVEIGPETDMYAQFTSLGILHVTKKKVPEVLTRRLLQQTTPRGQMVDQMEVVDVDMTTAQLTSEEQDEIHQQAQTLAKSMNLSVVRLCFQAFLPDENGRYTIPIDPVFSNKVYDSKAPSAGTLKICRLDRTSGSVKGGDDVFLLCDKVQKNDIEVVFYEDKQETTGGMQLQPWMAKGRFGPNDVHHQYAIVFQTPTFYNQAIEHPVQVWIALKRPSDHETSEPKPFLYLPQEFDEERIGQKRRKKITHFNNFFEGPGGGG
Assay: protein-binding microarray (PBM); PBM: ~300 nM protein, 6 mM HEPES pH 7.8, 80 mM KCl, 0.5 mM EDTA, 0.5 mM EGTA, 6% glycerol, 35 ng/ul poly-dIdC, 1% milk, 1 h, room temperature; Ap Aiptasia and Nv Nematostella (sea anemones) / Co Capsaspora / Aq Amphimedon (sponge) / Dm Drosophila / Hu human; RHD is the Rel homology domain; high values mean tight binding
Details: dsDNA, one strand shown
Please use the following binding signal ranges when assigning a class: low bin = under 4 z-score, mid bin = from 4 z-score up to 6 z-score, high bin = 6 z-score and over

Consider the worked cases shown below.
CCGATTAACATCAGGAATCTCCCTGATGTTAATCGGGTCTTGATTCGCTTGACGCTGCTG; high bin
CCGATTAACATCAGCACGGGAAATGATGTTAATCGGGTCTTGATTCGCTTGACGCTGCTG; low bin
CCGATTAACATCAGAAATACCCCTGATGTTAATCGGGTCTTGATTCGCTTGACGCTGCTG; high bin
CCGATTAACATCAAGGGAGTCCCTGATGTTAATCGGGTCTTGATTCGCTTGACGCTGCTG; mid bin
CCGATTAACATCAGGGGAACAAATGATGTTAATCGGGTCTTGATTCGCTTGACGCTGCTG; mid bin

For `CCGATTAACATCAAATTCCCAGATGATGTTAATCGGGTCTTGATTCGCTTGACGCTGCTG` , which binding signal bin applies?
low bin

Determine which band this sequence sits in: `CCGATTAACATCACGTGTTTCCCTGATGTTAATCGGGTCTTGATTCGCTTGACGCTGCTG`
low bin

// return the class label for `CCGATTAACATCAGGGACCCCCCTGATGTTAATCGGGTCTTGATTCGCTTGACGCTGCTG`
high bin

Bin? `CCGATTAACATCAGGAAACTCCATGATGTTAATCGGGTCTTGATTCGCTTGACGCTGCTG`
low bin

Class (by measured binding signal) for `CCGATTAACATCAGAAATTTCCCTGATGTTAATCGGGTCTTGATTCGCTTGACGCTGCTG`
high bin

For the record `CCGATTAACATCAGGAACCCCCCTGATGTTAATCGGGTCTTGATTCGCTTGACGCTGCTG` , report the class its binding signal corresponds to.
high bin
